Target: Progesterone receptor (Homo sapiens, UniProt P06401)
Sequence (P06401 whole entry): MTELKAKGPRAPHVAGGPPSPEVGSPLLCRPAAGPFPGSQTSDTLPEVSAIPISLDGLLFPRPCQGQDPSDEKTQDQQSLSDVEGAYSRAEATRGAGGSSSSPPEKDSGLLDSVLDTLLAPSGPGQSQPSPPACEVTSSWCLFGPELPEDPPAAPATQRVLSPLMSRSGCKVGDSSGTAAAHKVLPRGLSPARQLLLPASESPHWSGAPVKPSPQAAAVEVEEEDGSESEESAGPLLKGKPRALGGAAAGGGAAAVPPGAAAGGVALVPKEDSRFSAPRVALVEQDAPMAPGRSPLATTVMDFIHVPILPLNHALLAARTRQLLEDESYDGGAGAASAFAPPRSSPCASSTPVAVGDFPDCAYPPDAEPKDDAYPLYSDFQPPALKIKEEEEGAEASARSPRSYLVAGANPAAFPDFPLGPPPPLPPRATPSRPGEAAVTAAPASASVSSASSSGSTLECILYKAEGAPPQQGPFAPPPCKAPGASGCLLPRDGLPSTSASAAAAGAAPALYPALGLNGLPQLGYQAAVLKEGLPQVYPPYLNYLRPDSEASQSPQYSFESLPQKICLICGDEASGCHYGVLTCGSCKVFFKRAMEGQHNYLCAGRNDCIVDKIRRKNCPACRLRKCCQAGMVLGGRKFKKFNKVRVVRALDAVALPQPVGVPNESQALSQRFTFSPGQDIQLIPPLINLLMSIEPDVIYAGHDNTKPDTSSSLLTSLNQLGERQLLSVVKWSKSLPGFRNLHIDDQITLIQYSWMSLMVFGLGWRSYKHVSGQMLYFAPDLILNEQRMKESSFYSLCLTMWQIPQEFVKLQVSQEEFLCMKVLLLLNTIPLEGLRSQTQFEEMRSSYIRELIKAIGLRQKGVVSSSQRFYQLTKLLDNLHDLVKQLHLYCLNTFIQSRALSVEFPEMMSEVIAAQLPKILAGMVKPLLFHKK
Assay: Effective concentration against human Progesterone receptor B isoform expressed in CV-1 cells
Format: cell-based
attribute_measured: EC50 (µM)
Give a bare numeral; the unit µM is implied.

Query: Dear colleague, I am looking for the recorded EC50 of the following compound: C=C1C=C(C)CC(C)(C)C1C/C=C/c1cc(OC)c(Br)cc1O (stereo unspecified)
Result: 3.3

Numbers sourced from ChEMBL document CHEMBL1129561.
